- experimental.target: hCES1A (Homo sapiens, UniProt P23141)
- Construct: tissue Bioreclamation IVT lot no; X008067; host or cells: pooled human liver microsomes (50 donors)
- protocol.notes: hCES1A inhibition assay (DME hydrolysis in HLM);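 note: Read-out is D-luciferin luminescence formed from DME (3 µM) after 10 min at 37 °C in pH 6.5 PBS, HLM 1 µg/mL, inhibitor preincubated 3 min, oleanic acid as positive control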
- Type: biochemical
- particulars: HLM as enzyme source, DME hydrolysis as probe reaction; read-out: IC50 (μM) hCES1A
I'd be grateful if you could share measured IC50 for these entries.

{"compound": "CC(C)=CC/C=C(/C)C1CC[C@]2(C)C1[C@H](O)CC1[C@@]3(C)CC[C@H](O)C(C)(C)C3[C@@H](O[C@@H]3O[C@H](CO)[C@@H](O)[C@H](O)[C@H]3O[C@@H]3O[C@@H](C)[C@H](O)[C@@H](O)[C@H]3O)C[C@]12C (stereo partly drawn) [F4]", "obs.value": "> 100 µM"}
{"compound": "CC(C)=CCC[C@](C)(O[C@@H]1O[C@H](CO[C@@H]2OC[C@@H](O)[C@H](O)[C@H]2O)[C@@H](O)[C@H](O)[C@H]1O)[C@H]1CC[C@]2(C)[C@@H]1[C@H](O)C[C@@H]1[C@@]3(C)CC[C@H](O[C@@H]4O[C@H](CO)[C@@H](O)[C@H](O)[C@H]4O[C@@H]4O[C@H](CO)[C@@H](O)[C@H](O)[C@H]4O)C(C)(C)[C@@H]3CC[C@]12C [Rb3]", "obs.value": "> 100 µM"}

Q: I am curious: what IC50 value has been reported for CC(C)=CCC[C@](C)(O[C@@H]1O[C@H](CO)[C@@H](O)[C@H](O)[C@H]1O)C1CC[C@]2(C)C1[C@H](O)CC1[C@@]3(C)CC[C@H](O)C(C)(C)C3[C@@H](O[C@@H]3O[C@H](CO)[C@@H](O)[C@H](O)[C@H]3O[C@@H]3OC[C@@H](O)[C@H](O)[C@H]3O)C[C@]12C (stereo partly drawn) [R1, ginsenoside R1] ?
Ans: > 100 µM

###

- experimental.target: hCES2A (Homo sapiens, UniProt O00748)
- Construct: tissue Bioreclamation IVT lot no; X008067; host or cells: pooled human liver microsomes (50 donors)
- Sequence (O00748 27-559): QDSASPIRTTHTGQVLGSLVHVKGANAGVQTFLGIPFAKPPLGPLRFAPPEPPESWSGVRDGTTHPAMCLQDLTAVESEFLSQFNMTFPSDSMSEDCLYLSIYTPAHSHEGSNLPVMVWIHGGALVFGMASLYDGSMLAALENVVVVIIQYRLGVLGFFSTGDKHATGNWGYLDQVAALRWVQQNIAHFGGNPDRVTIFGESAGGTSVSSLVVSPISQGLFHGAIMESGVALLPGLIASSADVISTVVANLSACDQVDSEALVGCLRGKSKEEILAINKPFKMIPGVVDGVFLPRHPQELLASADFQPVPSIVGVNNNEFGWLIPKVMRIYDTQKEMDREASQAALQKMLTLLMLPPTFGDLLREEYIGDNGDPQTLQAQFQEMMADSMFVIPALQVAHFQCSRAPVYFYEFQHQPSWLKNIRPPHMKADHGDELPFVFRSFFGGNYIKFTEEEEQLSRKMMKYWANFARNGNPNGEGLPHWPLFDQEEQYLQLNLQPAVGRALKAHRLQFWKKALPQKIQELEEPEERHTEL
- protocol.notes: hCES2A inhibition assay (FD hydrolysis in HLM)
- Format: biochemical
- particulars: ratio of IC50 values in HLM
value.type: Specificity (hCES1A/hCES2A)

{"compound": "CC(C)=CCC[C@](C)(O)[C@H]1CC[C@]2(C)[C@@H]1[C@H](O)C[C@@H]1[C@@]3(C)CC[C@H](O)C(C)(C)[C@@H]3[C@@H](O)C[C@]12C", "value.type": "Specificity (hCES1A/hCES2A)", "obs.value": "> 116.28"}

Would you mind listing Specificity (hCES1A/hCES2A) for each of the following compounds?
1. CC(C)=CCC[C@](C)(O)C1CC[C@]2(C)C1[C@H](O)CC1[C@@]3(C)CC[C@H](O[C@@H]4O[C@H](CO)[C@@H](O)[C@H](O)[C@H]4O[C@@H]4O[C@H](CO)[C@@H](O)[C@H](O)[C@H]4O)C(C)(C)C3CC[C@]12C (stereo partly shown)
2. CC(C)=CCC[C@](C)(O)[C@H]1CC[C@]2(C)[C@@H]1[C@H](O)C[C@@H]1[C@@]3(C)CC[C@H](O[C@@H]4O[C@H](CO)[C@@H](O)[C@H](O)[C@H]4O)C(C)(C)[C@@H]3CC[C@]12C

Ans:
1. > 9.64
2. > 18.86

Q: Can you look up Specificity (hCES1A/hCES2A) on hCES2A (Homo sapiens, UniProt O00748) for CC(C)=CCC[C@](C)(O[C@@H]1O[C@H](CO[C@@H]2O[C@@H](CO)[C@H](O)[C@H]2O)[C@@H](O)[C@H](O)[C@H]1O)[C@H]1CC[C@]2(C)[C@@H]1[C@H](O)C[C@@H]1[C@@]3(C)CC[C@H](O[C@@H]4O[C@H](CO)[C@@H](O)[C@H](O)[C@H]4O[C@@H]4O[C@H](CO)[C@@H](O)[C@H](O)[C@H]4O)C(C)(C)[C@@H]3CC[C@]12C ?
Ans: >1.22

###

- experimental.target: hCES2A (Homo sapiens)
- Construct: tissue Bioreclamation IVT lot no; X008067; host or cells: pooled human liver microsomes (50 donors)
- protocol.notes: hCES2A inhibition assay (FD hydrolysis in HLM);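 note: HLM at 1 µg/mL in 0.1 M PBS pH 7.4, kinetic read at 37 °C every 30 s over 30 min, triplicate runs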
- Assay type: biochemical
- particulars: HLM as enzyme source, FD hydrolysis as probe reaction; read-out: IC50 (μM) hCES2A
value.type: IC50

{"compound": "CC(C)=CCC[C@](C)(O[C@@H]1O[C@H](CO[C@@H]2O[C@H](CO)[C@@H](O)[C@H](O)[C@H]2O)[C@@H](O)[C@H](O)[C@H]1O)[C@H]1CC[C@]2(C)[C@@H]1[C@H](O)C[C@@H]1[C@@]3(C)CC[C@H](O[C@@H]4O[C@H](CO)[C@@H](O)[C@H](O)[C@H]4O[C@@H]4O[C@H](CO)[C@@H](O)[C@H](O)[C@H]4O)C(C)(C)[C@@H]3CC[C@]12C", "value.type": "IC50", "obs.value": "> 100 µM"}
{"compound": "CC(C)=CCC[C@](C)(O[C@@H]1O[C@H](CO[C@@H]2OC[C@H](O)[C@H](O)[C@H]2O)[C@@H](O)[C@H](O)[C@H]1O)[C@H]1CC[C@]2(C)[C@@H]1[C@H](O)C[C@@H]1[C@@]3(C)CC[C@H](O[C@@H]4O[C@H](CO)[C@@H](O)[C@H](O)[C@H]4O[C@@H]4O[C@H](CO)[C@@H](O)[C@H](O)[C@H]4O)C(C)(C)[C@@H]3CC[C@]12C", "value.type": "IC50", "obs.value": "> 100 µM"}
{"compound": "CC1(C)CCC2(C(=O)OC3OC(CO)C(O)C(O)C3O)CCC3(C)C(=CCC4C5(C)CCC(OC6OC(C(=O)O)C(O)C(O)C6OC6OC(CO)C(O)C(O)C6O)C(C)(C)C5CCC43C)C2C1 (stereo not drawn)", "value.type": "IC50", "obs.value": "> 100 µM"}
{"compound": "CC(C)=CCC[C@](C)(O[C@@H]1O[C@H](CO)[C@@H](O)[C@H](O)[C@H]1O)C1CC[C@]2(C)C1[C@H](O)CC1[C@@]3(C)CC[C@H](O)C(C)(C)C3[C@@H](O[C@@H]3O[C@H](CO)[C@@H](O)[C@H](O)[C@H]3O[C@@H]3OC[C@@H](O)[C@H](O)[C@H]3O)C[C@]12C (stereo partly drawn) [R1, ginsenoside R1]", "value.type": "IC50", "obs.value": "> 100 µM"}
{"compound": "CC(C)=CCC[C@](C)(O[C@@H]1O[C@H](CO)[C@@H](O)[C@H](O)[C@H]1O)[C@H]1CC[C@]2(C)[C@@H]1[C@H](O)C[C@@H]1[C@@]3(C)CC[C@H](O)C(C)(C)[C@@H]3[C@@H](O[C@@H]3O[C@H](CO)[C@@H](O)[C@H](O)[C@H]3O[C@@H]3O[C@@H](C)[C@H](O)[C@@H](O)[C@H]3O)C[C@]12C [Re, ginsenoside Re]", "value.type": "IC50", "obs.value": "> 100 µM"}

Now for a further compound.
Q: Can you look up IC50 on hCES2A (Homo sapiens) for CC(C)=CCC[C@](C)(O[C@@H]1O[C@H](CO)[C@@H](O)[C@H](O)[C@H]1O)C1CC[C@]2(C)C1CCC1[C@@]3(C)CC[C@H](O)C(C)(C)C3CC[C@]12C (stereo partly drawn) [DMG, 20S-O-β-(D-glucosyl)-dammarenediol II] ?
Ans: 1.06 µM

###

- experimental.target: hCES1A (Homo sapiens, UniProt P23141)
- Sequence (P23141 18-567): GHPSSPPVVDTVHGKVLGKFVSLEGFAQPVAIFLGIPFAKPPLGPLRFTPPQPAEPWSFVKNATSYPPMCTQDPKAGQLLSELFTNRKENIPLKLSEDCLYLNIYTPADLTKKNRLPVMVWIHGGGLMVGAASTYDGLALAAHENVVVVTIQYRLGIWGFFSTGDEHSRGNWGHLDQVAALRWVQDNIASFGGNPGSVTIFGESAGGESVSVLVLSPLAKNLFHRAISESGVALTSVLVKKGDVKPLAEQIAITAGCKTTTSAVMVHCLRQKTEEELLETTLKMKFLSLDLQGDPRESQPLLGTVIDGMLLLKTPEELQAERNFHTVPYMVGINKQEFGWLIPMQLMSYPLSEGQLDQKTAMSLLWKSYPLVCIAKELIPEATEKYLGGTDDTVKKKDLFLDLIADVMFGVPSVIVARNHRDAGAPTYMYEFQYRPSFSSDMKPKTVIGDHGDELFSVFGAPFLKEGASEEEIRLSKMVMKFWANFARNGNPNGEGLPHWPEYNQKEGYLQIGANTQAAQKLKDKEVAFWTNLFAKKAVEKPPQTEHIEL
value.type: Ki (nM)
Give bare numbers, in nM.

{"compound": "CC(C)=CCC[C@](C)(O)[C@H]1CC[C@]2(C)[C@@H]1CC[C@@H]1[C@@]3(C)CC[C@H](O)C(C)(C)[C@@H]3CC[C@]12C [DM, Dammarenediol II]", "Ki (nM)": 2100}

Q: I am curious: what Ki value has been reported for CC(C)=CCC[C@](C)(O[C@@H]1O[C@H](CO)[C@@H](O)[C@H](O)[C@H]1O)C1CC[C@]2(C)C1CCC1[C@@]3(C)CC[C@H](O)C(C)(C)C3CC[C@]12C (stereo partly drawn) [DMG, 20S-O-β-(D-glucosyl)-dammarenediol II] ?
Ans: 2400

Every entry's value here was drawn from paper PMC6915887.
